The measured values listed here are drawn from patent US10626125B2.

Molecular target: human recombinant Monoacylglycerol Lipase (Homo sapiens)
Sequence (Q99685 1-303): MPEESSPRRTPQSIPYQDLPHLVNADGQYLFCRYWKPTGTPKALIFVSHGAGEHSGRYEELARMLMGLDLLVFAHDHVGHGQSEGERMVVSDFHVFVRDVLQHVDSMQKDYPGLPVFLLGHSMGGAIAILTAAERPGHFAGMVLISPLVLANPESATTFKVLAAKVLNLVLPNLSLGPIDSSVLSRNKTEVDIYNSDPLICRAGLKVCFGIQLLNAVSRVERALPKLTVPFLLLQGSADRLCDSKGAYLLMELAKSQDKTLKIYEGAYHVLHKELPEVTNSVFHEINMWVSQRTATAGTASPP
Assay: MAGL enzymatic assay (IC50; 7-HCA substrate added at T=0 min or T=30 min)
Format: biochemical
Settings: MAGL (T = 30 min) IC50, substrate 7-HCA added after 30 minute incubation (T=30 min); geometric mean of 2-5 determinations unless otherwise indicated
pIC50: −log10 of the molar value.
Where pIC50 equals or exceeds 8, the correct label is t; where it does not, the label is f.

Q. Reported pIC50 at or above 8? O=C(O[C@H](CO)C(F)(F)F)N1CCC2(CC1)CC(c1ccc(F)cn1)CO2 (single isomer, unassigned) [Example 17]
A. f

Q. Reported pIC50 at or above 8? O=C(O[C@H](CO)C(F)(F)F)N1CCC2(CC1)CC(c1ccc(C(F)F)nc1)CO2 (single isomer, unassigned) [Example 36]
A. f

Q. Reported pIC50 at or above 8? O=C(O[C@H](CO)C(F)(F)F)N1CCC2(CC1)CC(c1cc(C(F)F)ccn1)CO2 (single isomer, unassigned)
A. t

Q. Reported pIC50 at or above 8? O=C(O[C@H](CO)C(F)(F)F)N1CCC2(CC1)CC(Oc1cc(C(F)F)ccn1)C2
A. t

Q. Reported pIC50 at or above 8? O=C(O[C@H](CO)C(F)(F)F)N1CCC2(CC1)CC(Oc1cccc(F)c1)C2
A. t

====

biological target: human recombinant Monoacylglycerol Lipase (Homo sapiens, UniProt Q99685); assay: MAGL enzymatic assay (IC50; 7-HCA substrate added at T=0 min or T=30 min); format: biochemical; settings: substrate 7-HCA added immediately (T=0 min); geometric mean of 2-5 determinations unless otherwise indicated; read-out: MAGL (T = 0 min) IC50
Experimental Endpoint: IC50 (nM)
Numeric only. Scale: nM

Q. Using the record for COc1cc(C2CC3(CCN(C(=O)O[C@H](CO)C(F)(F)F)CC3)C2)ccn1 , state its measured IC50.
A. 17

Q. Using the record for N#Cc1cccc(C2CC3(CCN(C(=O)O[C@H](CO)C(F)(F)F)CC3)C2)c1 , state its measured IC50.
A. 4

Q. Using the record for O=C(O[C@H](CO)C(F)(F)F)N1CCC2(CCC(n3cc(F)cn3)CO2)CC1 (single isomer, unassigned) , state its measured IC50.
A. 22

Q. Using the record for CC(C)(C)c1cnn(C2COC3(CCN(C(=O)O[C@H](CO)C(F)(F)F)CC3)C2)c1 (single isomer, unassigned) , state its measured IC50.
A. 9

Q. Using the record for O=C(O[C@H](CO)C(F)(F)F)N1CCC2(CC1)CC(n1cc(Cl)cn1)CO2 (single isomer, unassigned) , state its measured IC50.
A. 49

Q. Using the record for N#Cc1cccc(OC2CC3(CCN(C(=O)O[C@H](CO)C(F)(F)F)CC3)C2)c1 , state its measured IC50.
A. 9

Q. Using the record for O=C(O[C@H](CO)C(F)(F)F)N1CCC2(CC1)CC(c1ccc(F)cn1)CO2 (single isomer, unassigned) [Example 17] , state its measured IC50.
A. 297
